Test system: PBMC
Test: IFNg/IL-5 dual ELISPOT after 14 day in vitro stimulation of PBMC with Tau peptides
Type: cell-based, human
Details: across all cohorts
Where no end group is shown, it is not given here. [ ]: non-standard residue; d: D form. pT = C[C@@H](OP(=O)(O)O)[C@H](N)C(=O)O; pS = N[C@@H](COP(=O)(O)O)C(=O)O
Below, each entry is listed with its recorded Average SFC per responder.
State the answer as a number, implicitly in SFC.

Would you please look over these solved cases?
1. VYKSPVVSGDTSPRHL (listed as Homo sapiens) [Tau 16-mer, start 393]: 1915
2. GDTSPRHLSNVSSTGS (listed as Homo sapiens) [Tau 16-mer, start 401]: 633
3. PMPDLKNVKSKIGSTE (PMPDLKNVKSKIG[pS]TE; listed as Homo sapiens) [Tau 16-mer, start 249]: 1982
4. KIGSLDNITHVPGGGN (listed as Homo sapiens) [Tau 16-mer, start 353]: 4070
5. IKHVPGGGSVQIVYKP (listed as Homo sapiens) [Tau 16-mer, start 297]: 1319

Prompt: Form field: reported Average SFC per responder of GQKGQANATRIPAKTP (listed as Homo sapiens) [Tau 16-mer, start 161]
Response: 1361

Prompt: Please do the same for DRSGYSSPGZPGXPGS as well.
Response: 611

Prompt: Please do the same for KVAVVRTPPKSPSSAK (KVAVVR[pT]PPKSPSSAK; listed as Homo sapiens) as well.
Response: 911

Prompt: Please do the same for VDLSKVTSKCGSLGNI (listed as Homo sapiens) [Tau 16-mer, start 313] as well.
Response: 1409

Prompt: Please do the same for SVQIVYKPVDLSKVTS (listed as Homo sapiens) as well.
Response: 731

Prompt: Please do the same for DFKDRVQSKIGSLDNI (DFKDRVQSKIG[pS]LDNI; listed as Homo sapiens) [Tau 16-mer, start 345] as well.
Response: 1345

Prompt: Please do the same for KTDHGAEIVYKSPVVS (listed as Homo sapiens) [Tau 16-mer, start 385] as well.
Response: 1679

###

System: PBMC
Assay: IFNg/IL-5 dual ELISPOT after 14 day in vitro stimulation of PBMC with Tau peptides
Format: cell-based, human
Conditions: healthy controls > 50 years old
Where no end group is shown, it is not given here. [ ]: non-standard residue; d: D form. pT = C[C@@H](OP(=O)(O)O)[C@H](N)C(=O)O
Below, each entry is listed with its recorded HC > 50 Total SFC.
State the answer as a number, implicitly in SFC.

Would you please look over these solved cases?
1. SNVSSTGSIDMVDZPQ: 0
2. PAPKTPPSSGEPPKSG (PAPK[pT]PPSSGEPPKSG; listed as Homo sapiens): 107

Now look at this one.
Prompt: Form field: reported HC > 50 Total SFC of IDMVDZPQLATLADEV
Response: 943

###

System: PBMC
Test: IFNg/IL-5 dual ELISPOT after 14 day in vitro stimulation of PBMC with Tau peptides
Format: cell-based, human
Below, each entry is listed with its recorded PD/HC > 50 Ratio of % Responders.
Answer with a number only.

1) TRIPAKTPPAPKTPPS (listed as Homo sapiens) [Tau 16-mer, start 169]: 1.0
2) VYKSPVVSGDTSPRHL (listed as Homo sapiens) [Tau 16-mer, start 393]: 1.0

Prompt: Form field: reported PD/HC > 50 Ratio of % Responders of ADGKTKIATPRGAAPP (listed as Homo sapiens) [Tau 16-mer, start 145]
Response: 1.0

###

Test system: PBMC
Assay: IFNg/IL-5 dual ELISPOT after 14 day in vitro stimulation of PBMC with Tau peptides
Type: cell-based, human
Conditions: across all cohorts
reported-metric: Average SFC per responder (SFC)
State the answer as a number, implicitly in SFC.

Would you please look over these solved cases?
1. KKIETHKLTFRENAKA (listed as Homo sapiens) [Tau 16-mer, start 369]: 1174
2. ADGKTKIATPRGAAPP (listed as Homo sapiens) [Tau 16-mer, start 145]: 868

Prompt: Observed Average SFC per responder on PBMC for TRIPAKTPPAPKTPPS (listed as Homo sapiens) [Tau 16-mer, start 169] , please.
Response: 1299

Prompt: Please do the same for SLEDEAAGHVTQARMV (listed as Homo sapiens) [Tau 16-mer, start 113] as well.
Response: 1283

Prompt: Please do the same for DFKDRVQSKIGZLDNI as well.
Response: 972

Prompt: Please do the same for GKVQIINKKLDLSNVQ (listed as Homo sapiens) [Tau 16-mer, start 273] as well.
Response: 1511

###

Tested on: PBMC
Assay: IFNg/IL-5 dual ELISPOT after 14 day in vitro stimulation of PBMC with Tau peptides
Assay type: cell-based, human
Conditions: healthy controls > 50 years old
Where no end group is shown, it is not given here. [ ]: non-standard residue; d: D form. pT = C[C@@H](OP(=O)(O)O)[C@H](N)C(=O)O; pS = N[C@@H](COP(=O)(O)O)C(=O)O
reported-metric: HC > 50 Total SFC
Note: a bare number is incomplete; add the unit.

Prompt: Form field: reported HC > 50 Total SFC of TPPTREPKKVAVVRXP
Response: 0 SFC

Prompt: Please do the same for PMPDLKNVKSKIGZTE as well.
Response: 5168 SFC

Prompt: Please do the same for PAPKXPPSSGEPPKSG (PAPK[pT]PPSSGEPPKSG) as well.
Response: 6207 SFC

Prompt: Please do the same for SNVSSTGSIDMVDSPQ (listed as Homo sapiens) [Tau 16-mer, start 409] as well.
Response: 1057 SFC

Prompt: Please do the same for KVAVVRXPPKSPSSAK as well.
Response: 6987 SFC

Prompt: Please do the same for DFKDRVQSKIGZLDNI as well.
Response: 1220 SFC

Prompt: Please do the same for PMPDLKNVKSKIGSTE (PMPDLKNVKSKIG[pS]TE; listed as Homo sapiens) [Tau 16-mer, start 249] as well.
Response: 6084 SFC

Prompt: Please do the same for DRSGYSSPGSPGTPGS (DRSGYSSPG[pS]PG[pT]PGS; listed as Homo sapiens) [Tau 16-mer, start 193] as well.
Response: 157 SFC

Prompt: Please do the same for TPPTREPKKVAVVRTP (listed as Homo sapiens) as well.
Response: 0 SFC

Prompt: Please do the same for IDMVDSPQLATLADEV (listed as Homo sapiens) [Tau 16-mer, start 417] as well.
Response: 0 SFC

Prompt: Please do the same for KVAVVRTPPKSPSSAK (KVAVVR[pT]PPKSPSSAK; listed as Homo sapiens) as well.
Response: 0 SFC

Prompt: Please do the same for DRSGYSSPGZPGXPGS as well.
Response: 187 SFC

Prompt: Please do the same for DFKDRVQSKIGSLDNI (DFKDRVQSKIG[pS]LDNI; listed as Homo sapiens) [Tau 16-mer, start 345] as well.
Response: 4330 SFC

Ref: patent US20200095296A1
